Cited source for all entries: ChEMBL document CHEMBL3885881

- Species on record: Rattus norvegicus
- Assay Comment: DrugMatrix - Regimen: Daily Repeat
- Type: toxicity, organism-based, Sprague-Dawley
- Set-up: regimen Daily Repeat, gender Male, age 6-8 weeks
- Conditions: in vivo, po, 0 mg/kg, 120 h, tissue Blood, route oral GAVAGE, dose level Control, time 5 day, vehicle 100 % WATER
Parameter: ERYTHROCYTE COUNT (x10E6/uL)
Reply numerically in x10E6/uL, unit not repeated.

Examples with their reported ERYTHROCYTE COUNT follow.
NNc1nncc2ccccc12 [HYDRALAZINE]    5.88
CN1[C@@H]2CC[C@H]1C[C@@H](OC(=O)C(CO)c1ccccc1)C2 (some centres undefined)    5.41
CC(C)(C)CC(C)(C)c1ccc(OCCOCC[N+](C)(C)Cc2ccccc2)cc1.[Cl-] [BENZETHONIUM CHLORIDE]    5.88

Consider the additional compound presented here.
Return reported ERYTHROCYTE COUNT. Input compound: O.O.O.O.O.O.[Cl-].[Cl-].[Sr+2] [STRONTIUM CHLORIDE HEXAHYDRATE]
5.82

* * *

Let's look at some molecules and their measured EOSINOPHIL.
- Species: Rattus norvegicus
- Assay Comment: DrugMatrix - Regimen: Daily Repeat
- Assay type: toxicity, organism-based, Sprague-Dawley
- Set-up: regimen Daily Repeat, gender Male, age 6-8 weeks
- Conditions: in vivo, po, 0 mg/kg, 72 h, tissue Blood, route oral GAVAGE, dose level Control, time 3 day, vehicle 100 % WATER
Answers without a unit are incomplete; give the number and then its unit.

Here's what some known entries look like.
Cn1c(=O)c2[nH]cnc2n(C)c1=O.O [THEOPHYLLINE]    1.17%
CS(=O)(=O)c1ccc([C@@H](O)[C@@H](CO)NC(=O)C(Cl)Cl)cc1 [THIAMPHENICOL]    0.83%
CN(C)CCOC(c1ccccc1)c1ccccc1 [DIPHENHYDRAMINE]    0.17%
CC(C)NCC(O)c1ccc(NS(C)(=O)=O)cc1 (stereo not drawn) [SOTALOL]    0.83%

Given CN(C)CC[C@@H](c1ccc(Cl)cc1)c1ccccn1 [DEXCHLORPHENIRAMINE] , respond with its EOSINOPHIL.
0.5%

Return the recorded EOSINOPHIL value; entry: NNc1nncc2ccccc12 [HYDRALAZINE]
0.17%

State, in one line, measured EOSINOPHIL of O.O.O.O.O.O.[Cl-].[Cl-].[Sr+2] [STRONTIUM CHLORIDE HEXAHYDRATE]
0.83%

Supply measured EOSINOPHIL of CN1[C@@H]2CC[C@H]1C[C@@H](OC(=O)C(CO)c1ccccc1)C2 (stereo partly drawn) [ATROPINE] in your reply.
0.33%

* * *

- Species: Rattus norvegicus
- Assay Comment: DrugMatrix - Regimen: Daily Repeat
- Format: toxicity, organism-based, Sprague-Dawley
- Parameters: regimen Daily Repeat, gender Male, age 6-8 weeks
- Conditions: in vivo, po, 1500 mg/kg, 72 h, tissue Blood, route oral GAVAGE, dose level High, time 3 day, vehicle .5 % CMC
Parameter: ABSOLUTE LYMPHOCYTE

Give a short answer stating reported ABSOLUTE LYMPHOCYTE for CC(C)=CCC/C(C)=C/CO .
15609.33 CELLS/uL

Give ABSOLUTE LYMPHOCYTE for CC(C)Oc1ccc2c(=O)c(-c3ccccc3)coc2c1
12351.67 CELLS/uL

Look up ABSOLUTE LYMPHOCYTE of COC(=O)Nc1nc2ccc([S+]([O-])c3ccccc3)cc2[nH]1 (stereo not given) and report it.
9253.67 CELLS/uL

For O=c1cnn([C@@H]2O[C@H](CO)[C@@H](O)[C@H]2O)c(=O)[nH]1 , write its ABSOLUTE LYMPHOCYTE.
9340.33 CELLS/uL

Give a short answer stating reported ABSOLUTE LYMPHOCYTE for CN(C)[C@@H]1C(O)=C(C(N)=O)C(=O)[C@@]2(O)C(O)=C3C(=O)c4c(O)ccc(Cl)c4[C@@](C)(O)[C@H]3C[C@@H]12 .
5616.67 CELLS/uL

* * *

# ABSOLUTE MONOCYTE listing for each entry below
- Species: Rattus norvegicus
- Assay Comment: DrugMatrix - Regimen: Daily Repeat
- Format: toxicity, organism-based, Sprague-Dawley
- Set-up: regimen Daily Repeat, gender Male, age 6-8 weeks
- Conditions: in vivo, po, 0 mg/kg, 72 h, tissue Blood, route oral GAVAGE, dose level Control, time 3 day, vehicle 100 % WATER
Report the figure in CELLS/uL without appending any unit label.

Return reported ABSOLUTE MONOCYTE. Input compound: CC(C)NCC(O)c1ccc(NS(C)(=O)=O)cc1 (centres undefined) [SOTALOL]
197.17

* * *

- Species on record: Rattus norvegicus
- Assay Comment: DrugMatrix - Regimen: Daily Repeat
- Type: toxicity, organism-based, Sprague-Dawley
- Design: regimen Daily Repeat, gender Male, age 6-8 weeks
- Conditions: in vivo, po, 0 mg/kg, 120 h, tissue Blood, route oral GAVAGE, dose level Control, time 5 day, vehicle 100 % WATER
Everything with ABSOLUTE MONOCYTE lower than 60 CELLS/uL is 0.0; everything else, including exactly 60 CELLS/uL, is 1.0.

Please review the following examples before continuing.
CN(C)CC[C@@H](c1ccc(Cl)cc1)c1ccccn1    1.0
Cc1ccc(NC(=O)c2ccc(CN3CCN(C)CC3)cc2)cc1Nc1nccc(-c2cccnc2)n1    0.0
Cn1c(=O)c2[nH]cnc2n(C)c1=O.O    1.0
CC(C)NCC(O)c1ccc(NS(C)(=O)=O)cc1 (configuration not stated)    0.0
CC(C)(C)CC(C)(C)c1ccc(OCCOCC[N+](C)(C)Cc2ccccc2)cc1.[Cl-] [BENZETHONIUM CHLORIDE]    1.0
CCN(CC)CCNC(=O)c1cc(S(C)(=O)=O)ccc1OC [TIAPRIDE]    0.0
CN1[C@@H]2CC[C@H]1C[C@@H](OC(=O)C(CO)c1ccccc1)C2 (some centres not stated)    1.0
CS(=O)(=O)c1ccc([C@@H](O)[C@@H](CO)NC(=O)C(Cl)Cl)cc1    0.0
NNc1nncc2ccccc12 [HYDRALAZINE]    1.0
C[C@]12C=CC(=O)C=C1CC[C@@H]1[C@@H]2[C@@H](O)C[C@@]2(C)[C@H]1CC[C@]2(O)C(=O)CO    1.0

Quick check: does O.O.O.O.O.O.[Cl-].[Cl-].[Sr+2] [STRONTIUM CHLORIDE HEXAHYDRATE] have ABSOLUTE MONOCYTE greater than or equal to 60 CELLS/uL?
0.0

In plain terms: is recorded ABSOLUTE MONOCYTE at least 60 CELLS/uL for CN(C)CCOC(c1ccccc1)c1ccccc1 [DIPHENHYDRAMINE] ?
1.0

* * *

- Organism: Rattus norvegicus
- Assay Comment: DrugMatrix - Regimen: Daily Repeat
- Assay type: toxicity, organism-based, Sprague-Dawley
- Parameters: regimen Daily Repeat, gender Male, age 6-8 weeks
- Conditions: in vivo, po, 0 mg/kg, 72 h, tissue Plasma, route oral GAVAGE, dose level Control, time 3 day, vehicle .5 % CMC
Below is a list of entries, each paired with its recorded LIPASE value.
Provide the reading as a plain figure in u/L.

Some entries whose results are on file:
CN/C(=N/CCSCc1nc[nH]c1C)NC#N    10
O=C1Nc2ccc(Cl)cc2C(c2ccccc2Cl)=NC1O (centres undefined)    10.33
Cn1c(=O)c2c(ncn2CC(O)CO)n(C)c1=O (centres undefined)    9

Give me measured LIPASE, please, for this compound: C[C@H]1O[C@@H](n2cc(F)c(=O)[nH]c2=O)[C@H](O)[C@@H]1O
10

# return recorded LIPASE for entry CN(C)[C@@H]1C(O)=C(C(N)=O)C(=O)[C@@]2(O)C(O)=C3C(=O)c4c(O)ccc(Cl)c4[C@@](C)(O)[C@H]3C[C@@H]12
9

# return recorded LIPASE for input O=C1CN=C(c2ccccc2Cl)c2cc([N+](=O)[O-])ccc2N1
10

* * *

- Species on record: Rattus norvegicus
- Assay Comment: DrugMatrix - Regimen: Daily Repeat
- Format: toxicity, organism-based, Sprague-Dawley
- Design: regimen Daily Repeat, gender Male, age 6-8 weeks
- Conditions: in vivo, po, 10 mg/kg, 72 h, tissue Blood, route oral GAVAGE, dose level Low, time 3 day, vehicle .5 % CMC
Parameter: LYMPHOCYTE

O=C1CN=C(c2ccccc2Cl)c2cc([N+](=O)[O-])ccc2N1    93.33%
Fc1ccc(C(c2ccc(F)cc2)N2CCN(C/C=C/c3ccccc3)CC2)cc1    91.33%
O=C1C(CC[S+]([O-])c2ccccc2)C(=O)N(c2ccccc2)N1c1ccccc1 (centres undefined)    91%

Let us move to another entry and its LYMPHOCYTE.
Specify reported LYMPHOCYTE for the compound shown: CNCCC(Oc1ccc(C(F)(F)F)cc1)c1ccccc1 (centres undefined)
84.67%
